Recorded values, source patent US20170355757A1.

- System Tested: T1, human C5 R885H-mmh (human, UniProt P01031 19-1676)
- T1 construct: also called human C5 variant R885H
- Test Summary: SPR, mAb captured via anti-hFc, 37C
pKd listing for selected binders.
// pKd here means minus log10 of the molar concentration (mol/L)

Worked cases, pKd given:
{"Binder": "H4H11683N (antibody, V domains shown, also called H2M11683N) VH: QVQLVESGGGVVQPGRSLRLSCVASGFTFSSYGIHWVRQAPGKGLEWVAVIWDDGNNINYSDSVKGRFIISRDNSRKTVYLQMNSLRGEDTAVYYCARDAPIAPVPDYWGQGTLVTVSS VL: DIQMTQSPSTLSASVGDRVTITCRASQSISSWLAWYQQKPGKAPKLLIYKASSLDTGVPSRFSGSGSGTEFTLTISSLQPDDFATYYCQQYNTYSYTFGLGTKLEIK", "pKd": 8.57}
{"Binder": "H4H12163P (antibody, human IgG4, V domains shown, Human IgG4 Fc with S108P hinge mutation (H4H)) VH: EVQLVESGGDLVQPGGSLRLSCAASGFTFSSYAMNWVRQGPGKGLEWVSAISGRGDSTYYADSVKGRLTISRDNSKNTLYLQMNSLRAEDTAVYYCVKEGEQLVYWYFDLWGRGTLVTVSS VL: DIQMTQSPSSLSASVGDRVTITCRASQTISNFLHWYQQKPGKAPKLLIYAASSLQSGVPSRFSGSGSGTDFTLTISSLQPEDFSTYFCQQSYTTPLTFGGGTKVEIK", "pKd": 8.40}
{"Binder": "H4H12168P (antibody, human IgG4, V domains shown, Human IgG4 Fc with S108P hinge mutation (H4H)) VH: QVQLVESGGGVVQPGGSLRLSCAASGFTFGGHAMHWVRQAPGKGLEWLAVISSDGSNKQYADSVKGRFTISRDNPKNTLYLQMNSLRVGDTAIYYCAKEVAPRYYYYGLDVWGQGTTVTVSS VL: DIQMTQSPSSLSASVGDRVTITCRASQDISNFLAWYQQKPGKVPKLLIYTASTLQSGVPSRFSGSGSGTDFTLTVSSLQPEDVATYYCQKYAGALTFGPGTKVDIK", "pKd": 7.30}

Problem: Can you share its pKd? I mean this binder: H4H12175P (antibody, human IgG4, V domains shown, Human IgG4 Fc with S108P hinge mutation (H4H)) VH: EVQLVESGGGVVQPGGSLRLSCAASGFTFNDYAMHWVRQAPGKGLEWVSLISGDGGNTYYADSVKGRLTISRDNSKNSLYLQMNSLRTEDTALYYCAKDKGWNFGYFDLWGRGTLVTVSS VL: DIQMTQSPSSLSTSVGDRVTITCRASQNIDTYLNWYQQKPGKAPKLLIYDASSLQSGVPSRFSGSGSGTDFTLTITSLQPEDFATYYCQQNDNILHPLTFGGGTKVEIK
Solution: 7.16
